# Test Summary: NCI Yeast Anticancer Drug Screen. Data for the mec2-1 strain (AID 157)
# Run Conditions: S. cerevisiae mec2-1 strain, at 50.0 µM, hits give high values
# Method: Growth inhibition of yeast strains with defined genetic alterations is measured as a screen for potential anti-cancer activity. Selected strains with alterations in DNA damage repair or cell cycle control were exposed to compounds and growth inhibition was measured relative to vehicle treated controls. The strain used in this assay is mec2-1
About 79,000 compounds went through this panel and 15% of them were active in at least one assay; those are over-represented in the sample as a whole.
Consider the following molecules and their measured growth inhibition readings.
All answers are understood in %, so give the number only.

Some solved cases for reference:
O=S(=O)(O)c1ccc(N=Nc2ccc3c(S(=O)(=O)O)cccc3c2O)c2ccccc12: -21.6
CCCCCCCCCCCC[S+](C)C: 78.3
Nn1c2ccccc2c2ccccc21: 11.8
S=C1NCCNC(=S)SS1: 77.6
Cc1ccc(SCN2CCCCC2)cc1 (tested in a mixture with another compound): 12.6
O=C(Nc1nc2c(ncn2C2CC(OC(=O)c3ccccc3)C(COC(=O)c3ccccc3)O2)c(=O)[nH]1)c1ccccc1 (configuration not stated): 38.5
CC(C)(C)c1cc(Cl)c(O)c(Cc2cc(C(C)(C)C)cc(Cl)c2O)c1: 72.2
CC(=O)/C=N/Nc1ccccc1: 3.5
CC(=O)c1ccc([N+](=O)[O-])o1: 92.2
Nc1nnc(Cc2ccc(Br)cc2)o1: 13.9

# input Sample `O=C1OC(=O)c2cc([N+](=O)[O-])cc3cccc1c23` — what was its growth inhibition?
# output 36.2

# input Sample `CC(=O)C1=C(C)O/C(=C/c2ccc(Cl)cc2)C1=O` — what was its growth inhibition?
# output 32

Data provenance: PubChem BioAssay (NCI)
